Source listed as ChEMBL document CHEMBL1146197.

# System: Escherichia coli
# assay: microbe, parasite or virus in culture
# Format: functional
# assay conditions: DH5alpha
# Description: Antimicrobial activity against recombinant Escherichia coli DH5-alpha CL1179 isolate expressing pBK-TEM-152 and CMT by disk diffusion assay
quantity measured: MIC

A selection of reference data follows.
compound	MIC
CCN1CCN(C(=O)N[C@@H](C(=O)N[C@@H]2C(=O)N3[C@@H]2SC(C)(C)[C@@H]3C(=O)O)c2ccccc2)C(=O)C1=O [PIPERACILLIN]	> 2050 µg/mL
CC1(C)S[C@@H]2[C@H](NC(=O)[C@H](N)c3ccc(O)cc3)C(=O)N2[C@H]1C(=O)O [AMOXICILLIN]	> 2050 µg/mL

--- query ---
Prompt: Specify reported MIC for the compound shown: CO/N=C(\C(=O)N[C@@H]1C(=O)N2C(C(=O)O)=C(COC(C)=O)CS[C@H]12)c1csc(N)n1 [CEFOTAXIME]
Completion: 0.25 µg/mL
